# experimental_system: vasopressin-1 receptor (Rattus norvegicus)
# Construct: cell membranes prepared from rat liver; from tissue; host or cells: rat liver membranes
# Sequence (P30560 whole entry): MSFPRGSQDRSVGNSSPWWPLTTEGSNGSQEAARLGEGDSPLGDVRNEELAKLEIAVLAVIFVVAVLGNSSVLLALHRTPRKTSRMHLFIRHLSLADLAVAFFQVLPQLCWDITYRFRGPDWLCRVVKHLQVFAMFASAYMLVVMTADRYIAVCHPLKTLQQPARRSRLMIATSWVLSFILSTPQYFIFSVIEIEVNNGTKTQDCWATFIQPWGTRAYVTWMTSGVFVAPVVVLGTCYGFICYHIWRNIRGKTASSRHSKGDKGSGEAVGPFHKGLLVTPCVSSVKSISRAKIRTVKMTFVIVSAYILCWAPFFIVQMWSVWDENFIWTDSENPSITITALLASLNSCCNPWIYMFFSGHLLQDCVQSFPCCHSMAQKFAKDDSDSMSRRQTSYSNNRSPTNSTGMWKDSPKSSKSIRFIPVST
# protocol: 3H-vasopressin-1 antagonist binding inhibition, rat liver cell membranes
# reported_conditions: Re-complexed
Ends that are not written are not given here.
endpoint_label: % Inhibition at 1 μM Vasopressin-1 Receptor (Table 30) (%)
Give bare numbers, in %.

Ala-Tyr-Ile-Gln-Asn-Ala-Cys-Ala-Leu-Gly-NH2 (AYIQNACALG-NH2; not fully specified (bridges); printed as Ala-Tyr-Ile-Gln-Asn-Ala-Cys-Ala-Leu-Gly-NH2; also: oxorhenium(V) N3S1 metal chelate (Re=O)) [SEQ ID NO:154]: 0

Fill in: % Inhibition at 1 μM Vasopressin-1 Receptor (Table 30) of Ala-Tyr-Cys-Ile-Gln-Asn-Ala-Pro-Leu-Gly-NH2 (AYCIQNAPLG-NH2; not fully specified (bridges); printed as Ala-Tyr-Cys-Ile-Gln-Asn-Ala-Pro-Leu-Gly-NH2; also: oxorhenium(V) N3S1 metal chelate (Re=O)) [SEQ ID NO:158] is ___
1
